Tgt: human collagen type I (human) (UniProt P02452)
Sequence (P02452 162-1218 limits assumed, chain 1 of 2): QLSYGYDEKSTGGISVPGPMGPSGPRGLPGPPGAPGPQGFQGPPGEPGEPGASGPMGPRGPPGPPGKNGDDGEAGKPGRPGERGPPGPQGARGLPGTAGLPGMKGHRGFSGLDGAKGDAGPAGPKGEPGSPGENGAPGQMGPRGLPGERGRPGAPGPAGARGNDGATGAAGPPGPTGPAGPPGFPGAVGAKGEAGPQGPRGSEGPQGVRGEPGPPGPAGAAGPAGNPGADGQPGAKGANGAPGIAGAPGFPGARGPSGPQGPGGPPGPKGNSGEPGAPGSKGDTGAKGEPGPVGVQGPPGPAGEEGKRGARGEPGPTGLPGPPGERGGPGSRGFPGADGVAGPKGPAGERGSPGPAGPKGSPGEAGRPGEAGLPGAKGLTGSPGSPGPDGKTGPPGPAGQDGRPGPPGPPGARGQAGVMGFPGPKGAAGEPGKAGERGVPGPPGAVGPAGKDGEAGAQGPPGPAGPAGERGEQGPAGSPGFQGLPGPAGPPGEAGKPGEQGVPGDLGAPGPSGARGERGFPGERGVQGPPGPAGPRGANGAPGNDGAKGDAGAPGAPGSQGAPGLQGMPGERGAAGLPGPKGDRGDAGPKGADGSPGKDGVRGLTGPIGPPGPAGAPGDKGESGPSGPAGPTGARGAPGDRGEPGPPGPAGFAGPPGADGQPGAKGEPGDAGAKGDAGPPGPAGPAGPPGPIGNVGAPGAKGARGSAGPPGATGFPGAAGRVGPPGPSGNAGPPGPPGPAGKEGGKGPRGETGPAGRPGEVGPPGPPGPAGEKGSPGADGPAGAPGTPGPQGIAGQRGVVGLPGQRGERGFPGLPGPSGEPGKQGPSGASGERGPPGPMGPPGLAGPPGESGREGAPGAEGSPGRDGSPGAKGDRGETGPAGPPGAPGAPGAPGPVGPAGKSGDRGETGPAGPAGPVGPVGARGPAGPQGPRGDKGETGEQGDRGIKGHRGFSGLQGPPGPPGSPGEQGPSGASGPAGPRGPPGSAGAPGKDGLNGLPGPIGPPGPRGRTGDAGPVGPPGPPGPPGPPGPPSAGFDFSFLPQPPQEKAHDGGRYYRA
Sequence (P08123 80-1119 limits assumed, chain 2 of 2, further chain): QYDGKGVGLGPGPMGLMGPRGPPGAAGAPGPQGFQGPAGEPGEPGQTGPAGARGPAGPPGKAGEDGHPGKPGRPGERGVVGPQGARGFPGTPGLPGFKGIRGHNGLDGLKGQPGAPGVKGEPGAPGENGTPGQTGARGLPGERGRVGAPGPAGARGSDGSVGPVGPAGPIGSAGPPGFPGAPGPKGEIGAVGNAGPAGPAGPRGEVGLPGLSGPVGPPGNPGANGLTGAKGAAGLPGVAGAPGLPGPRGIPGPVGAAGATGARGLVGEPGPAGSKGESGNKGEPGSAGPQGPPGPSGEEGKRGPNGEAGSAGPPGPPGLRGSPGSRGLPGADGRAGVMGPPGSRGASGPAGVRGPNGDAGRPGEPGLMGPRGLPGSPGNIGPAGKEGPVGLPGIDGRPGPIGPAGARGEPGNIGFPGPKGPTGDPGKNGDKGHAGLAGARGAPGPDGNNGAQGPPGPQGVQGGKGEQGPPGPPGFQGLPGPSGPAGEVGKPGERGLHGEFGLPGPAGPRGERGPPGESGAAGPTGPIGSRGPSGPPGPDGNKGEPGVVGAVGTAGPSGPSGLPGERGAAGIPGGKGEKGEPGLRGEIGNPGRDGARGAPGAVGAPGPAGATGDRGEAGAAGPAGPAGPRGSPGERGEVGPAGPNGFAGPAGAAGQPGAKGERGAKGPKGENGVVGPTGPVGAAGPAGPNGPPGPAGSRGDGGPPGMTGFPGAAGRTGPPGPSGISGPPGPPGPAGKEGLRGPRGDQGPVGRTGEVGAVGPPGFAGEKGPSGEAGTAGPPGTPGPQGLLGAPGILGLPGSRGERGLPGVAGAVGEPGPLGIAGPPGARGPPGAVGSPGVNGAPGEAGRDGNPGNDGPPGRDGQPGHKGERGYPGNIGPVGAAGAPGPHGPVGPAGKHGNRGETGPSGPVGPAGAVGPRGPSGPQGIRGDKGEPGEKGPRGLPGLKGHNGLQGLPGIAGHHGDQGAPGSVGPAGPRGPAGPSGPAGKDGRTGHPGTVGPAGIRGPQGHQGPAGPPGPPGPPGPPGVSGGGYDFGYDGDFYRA
Measurement description: dried collagen assay, 5 uM peptide
Bridge positions count the residues as written; N and C are the ends. Square brackets hold non-standard residues; d marks the D form. Ends that are not written are not given here.
Measured endpoint: % Collagen Binding, Dried Human (%)

As a guide, the following entries are already answered.
>  <Binder>
GQWTCSGDEYT[dW]HCNYE (disulfide 5-14 (inferred); not fully specified (C-terminus)) [SEQ ID NO: 173]

>  <Recorded number>
5

$$$$
>  <Binder>
DWTCS[dY]DEYTWHCNYE (disulfide 4-13 (inferred); not fully specified (C-terminus); printed as D W T C S y D E Y T W H C N Y E) [SEQ ID NO: 182]

>  <Recorded number>
89

$$$$

[P] YHACYQAGCW[dI]W (disulfide 4-9 (inferred)) [SEQ ID NO: 161]
[Q] DWTCS[dR]DEYTWHCNYE (disulfide 4-13 (inferred); not fully specified (C-terminus); printed as D W T C S r D E Y T W H C N Y E) [SEQ ID NO: 181]
Problem: Compare % Collagen Binding, Dried Human: is it lower for P or for Q ? Could you answer with the label of the item you picked?
Solution: P
(P: 8%, Q: 87%)
